Read-out: 3-Hydroxy-3-Methylglutaryl-CoA Synthase 2 (HMGCS2), HMGCS2 (gene 3158)
Experiment: LTEA_HepaRG_HMGCS2: Life Technologies and Expression Analysis (LTEA) Assay for 3-Hydroxy-3-Methylglutaryl-CoA Synthase 2 (HMGCS2) using HepaRG (AID 2283504)
Details: mRNA level, 48 h; actives raise or lower the signal
Calls of active or inactive are those of the source. How the source made its calls: active means hit-call score of the fitted dose curve at least 0.9, where 1 is the maximum; inactive means score below 0.9.
Possible outcomes: active, inactive

>  <compound>
Cc1cc(Cc2ccc(N)c(C)c2)ccc1N

>  <cat>
inactive

$$$$
>  <compound>
Cc1cn([C@H]2C=C[C@@H](CO)O2)c(=O)[nH]c1=O

>  <cat>
inactive

$$$$
>  <compound>
C#CC(O)C(CC)CCCC (configuration not stated)

>  <cat>
inactive

$$$$
>  <compound>
NC=O

>  <cat>
inactive

$$$$
>  <compound>
CC(=O)[C@@]1(O)CC[C@H]2[C@@H]3CCC4=CC(=O)CC[C@]4(C)[C@H]3CC[C@@]21C

>  <cat>
inactive

$$$$
>  <compound>
COC(=O)CCCC(=O)OC

>  <cat>
inactive

$$$$
>  <compound>
CCN(CC)CCOc1ccc(C(=C(Cl)c2ccccc2)c2ccccc2)cc1

>  <cat>
active

$$$$
>  <compound>
COc1ccc(OC(F)(F)F)cc1CN[C@H]1CCCN[C@H]1c1ccccc1

>  <cat>
active

$$$$
>  <compound>
O=C1CCCCC1

>  <cat>
inactive

$$$$
>  <compound>
c1ccc2occc2c1

>  <cat>
inactive

$$$$
>  <compound>
O=C1O[C@H]([C@H](O)CO)C(O)=C1O

>  <cat>
inactive

$$$$
>  <compound>
O=C(N[C@@H](c1ccccc1)[C@@H]1CCCCN1)c1cccc(C(F)(F)F)c1Cl

>  <cat>
active

$$$$
>  <compound>
CC1=C(C)S(=O)(=O)CCS1(=O)=O

>  <cat>
inactive

$$$$
>  <compound>
Cc1cc(SC2=C(O)C[C@@](CCc3ccc(N)cc3)(C(C)C)OC2=O)c(C(C)(C)C)cc1CO

>  <cat>
active

$$$$
>  <compound>
O=C(O)c1cccnc1

>  <cat>
inactive

$$$$
>  <compound>
OCC(CO)n1cnc(-c2ccc(F)cc2)c1-c1ccnc(Oc2ccccc2)n1

>  <cat>
inactive

$$$$
>  <compound>
CSc1ccc(Oc2ccc(S(N)(=O)=O)cc2CN(C)C)cc1C

>  <cat>
active

$$$$

====

Target: Myc proto-oncogene protein (Homo sapiens)
Assay: ATG_Myc_CIS: Attagene CIS-FACTORIAL HepG2 Assay for human Myelocytomatosis (Myc) Proto-Oncogene Transcription Factor (AID 2282990)
Conditions: HepG2, Attagene cis-reporter transcription factor activity; actives raise or lower the signal
The source made the active and inactive calls. Rule for the calls: active = hit-call score of the fitted dose curve at least 0.9, where 1 is the maximum; inactive = score below 0.9.
Classes used: Yes = active, No = inactive

>  <molecule>
CN(C)C(=O)NC1(c2ccccc2)CCN(CCC[C@]2(c3ccc(Cl)c(Cl)c3)CCCN(C(=O)c3ccccc3)C2)CC1

>  <cat>
Yes

$$$$
>  <molecule>
CC(C)COC(=O)CCCCC(=O)OCC(C)C

>  <cat>
No

$$$$
>  <molecule>
S=c1[nH]c2ccccc2s1

>  <cat>
No

$$$$
>  <molecule>
CCc1nc(N)nc(N)c1-c1ccc(Cl)cc1

>  <cat>
Yes

$$$$
>  <molecule>
CCCCC(CC)COP(=O)(OCC(CC)CCCC)OCC(CC)CCCC (stereo not given)

>  <cat>
No

$$$$
>  <molecule>
CC(C)(O)c1ccc(CNC(=O)c2cccnc2Oc2ccc(F)cc2)cc1

>  <cat>
No

$$$$
>  <molecule>
CC(=O)OCC(COC(C)=O)OC(C)=O

>  <cat>
No

$$$$
>  <molecule>
Cc1ccc(C(C)(C)C)c(O)c1

>  <cat>
Yes

$$$$
>  <molecule>
CCN(CC)CCOc1ccc(C(=C(Cl)c2ccccc2)c2ccccc2)cc1

>  <cat>
No

$$$$
>  <molecule>
COc1ccc(C(=O)Nc2nc3ccccc3c(NCc3ccccc3)c2C#N)cc1

>  <cat>
No

$$$$
>  <molecule>
CCCCC(CC)CO (stereo not given)

>  <cat>
No

$$$$
>  <molecule>
CC(=O)OC1CC(C)OC(C)O1 (stereo not given)

>  <cat>
No

$$$$
>  <molecule>
CN(C)C(=O)NC1(c2ccccc2)CCN(CC[C@@]2(c3ccc(F)c(F)c3)CN(C(=O)c3ccccc3)CCO2)CC1

>  <cat>
No

$$$$
>  <molecule>
CC(COCC(C)OC(=O)c1ccccc1)OC(=O)c1ccccc1 (stereo not given)

>  <cat>
No

$$$$
>  <molecule>
CCCC(=O)O

>  <cat>
No

$$$$
>  <molecule>
O=C1c2c(O)cccc2Cc2cccc(O)c21

>  <cat>
No

$$$$
>  <molecule>
Cc1ccc(-c2cc(C(F)(F)F)nn2-c2ccc(S(N)(=O)=O)cc2)cc1

>  <cat>
No

$$$$
>  <molecule>
Oc1ccccc1O

>  <cat>
No

$$$$
>  <molecule>
Cn1cnc2c1c(=O)[nH]c(=O)n2C

>  <cat>
No

$$$$
>  <molecule>
CC(N)=O

>  <cat>
No

$$$$
>  <molecule>
CC(=O)O

>  <cat>
No

$$$$
>  <molecule>
CCCCCCCCCCCCCCCCO

>  <cat>
No

$$$$
>  <molecule>
OCC(CO)n1cnc(-c2ccc(F)cc2)c1-c1ccnc(Oc2ccccc2)n1

>  <cat>
No

$$$$
>  <molecule>
O=C1OC(c2ccc(O)cc2)(c2ccc(O)cc2)c2ccccc21

>  <cat>
Yes

$$$$
>  <molecule>
CS(=O)(=O)c1ccc([C@@H](C[C@H]2CCC(=O)C2)C(=O)Nc2cnccn2)cc1Cl

>  <cat>
No

$$$$
>  <molecule>
CC(C)OC(=O)C(C)(C)Oc1ccc(C(=O)c2ccc(Cl)cc2)cc1

>  <cat>
No

$$$$
>  <molecule>
O=C(O)CN(CC(=O)O)CC(=O)O

>  <cat>
No

$$$$
>  <molecule>
NC=O

>  <cat>
No

$$$$
>  <molecule>
Cc1cc(Cc2ccc(N)c(C)c2)ccc1N

>  <cat>
No

$$$$
>  <molecule>
CC(C)c1cccc(C(C)C)c1NC(=O)NS(=O)(=O)c1cc(C(C)(C)O)co1

>  <cat>
No

$$$$
